tgt: HCV polymerase (NS5B) type 1a (Hepatitis C virus genotype 1a, UniProt P26664)
Construct: made in house; host or cells: Escherichia coli (by the 'similar method' of the 1b enzyme)
test_method_notes: Assay of enzyme (HCV polymerase) inhibitory activity, type 1a enzyme
Assay type: biochemical, HCV type 1a (cloned from the blood of patients)
condition_parameters: HCV polymerase inhibitory activity (IC50), 1a, type 1a enzyme 1.5 μg/ml, 25° C., 60 min
Reported IC50 is given for each of the following compounds.

Observe how each entry below is paired with its result.
compound: CCC(F)(F)c1ccc(CNC(=O)[C@H]2CN(c3nc(OC)ns3)CCN2S(=O)(=O)c2ccc(OC(F)(F)F)cc2)cc1 [Example 625]
endpoint_value: < 100 nM
//
compound: CCCc1ccc(CNC(=O)[C@H]2CN(c3cnc(C(=O)O)cn3)CCN2S(=O)(=O)c2ccc(CC)s2)cc1 [Example 522]
endpoint_value: < 100 nM
//
compound: CC(=O)NCCC(=O)N1CCN(S(=O)(=O)c2ccc(C(F)(F)F)cc2)[C@@H](C(=O)NCc2ccc(C(C)C)cc2)C1 [Example 188]
endpoint_value: 100 to 1000 nM
//
compound: CC(C)c1ccc(CNC(=O)[C@H]2CN(C(=O)Nc3ccnc(C(=O)OC(C)(C)C)c3)CCN2S(=O)(=O)c2ccc(C(F)(F)F)cc2)cc1 [Example 301]
endpoint_value: < 100 nM
//
compound: CN(C)CC(=O)N1CCN(S(=O)(=O)c2ccc(I)cc2)C(C(=O)NCc2ccc(N(C)C)cc2)C1 (stereo not shown) [Example 95]
endpoint_value: > 1000 nM
//
compound: CC(=O)N1CCN(S(=O)(=O)c2ccc(CCC(=O)O)s2)[C@@H](C(=O)NCc2ccc(C(C)C)cc2)C1 [Example 283]
endpoint_value: > 1000 nM

Next, consider the following compound.
**Q:** Given the entry CC(=O)N1CCN(S(=O)(=O)c2ccc(OC(F)(F)F)cc2)[C@@H](C(=O)NCc2ccc(C(F)(F)C(F)(F)F)cc2)C1 [Example 550] , what IC50 was observed with HCV polymerase (NS5B) type 1a (Hepatitis C virus genotype 1a, UniProt P26664)?
**A:** 100 to 1000 nM
